Data provenance is the Immune Epitope Database (IEDB).

The reader will find reported pIC50 values listed item by item below.
# SYSTEM: HLA-A*02:05
# ASSAY_COMMENT: IEDB peptide-MHC binding, cellular MHC/competitive/fluorescence; bounds were set here for any values at or beyond the usual limits of such assays
# SETTINGS: source organism: Human papillomavirus 16
pIC50: −log10 of the molar value.

### Prompt # get_value(readout='pIC50', item= TLGIVCPI )
### Response ≤ 4.70

# context switch: different sequence, same pIC50
### Prompt # get_value(readout='pIC50', item= YMLDLQPETT )
### Response ≤ 4.00

###

# SYSTEM: HLA-A*02:02
# ASSAY_COMMENT: IEDB peptide-MHC binding, cellular MHC/competitive/fluorescence; bounds were set here for any values at or beyond the usual limits of such assays
# SETTINGS: source organism: Human papillomavirus 16
The reader will find reported pIC50 values listed item by item below.
Keep in mind that pIC50 stands for -log10 of concentration in molar terms.

### Prompt # get_value(readout='pIC50', item= YMLDLQPETT )
### Response 5.22

Next:
### Prompt # get_value(readout='pIC50', item= TLGIVCPI )
### Response 5.40

###

# SYSTEM: HLA-A*02:04
# ASSAY_COMMENT: IEDB peptide-MHC binding, cellular MHC/competitive/fluorescence; bounds were set here for any values at or beyond the usual limits of such assays
# SETTINGS: source organism: Hepatitis B virus
QUANTITY_NAME: IC50 (nM)
Give a bare numeral; the unit nM is implied.

### Prompt # get_value(readout='IC50', item= FLPSDFFPSV )
### Response 1000

###

# SYSTEM: HLA-A*02:06
# ASSAY_COMMENT: IEDB peptide-MHC binding, cellular MHC/competitive/fluorescence; bounds were set here for any values at or beyond the usual limits of such assays
# SETTINGS: source organism: Human papillomavirus 16
QUANTITY_NAME: pIC50
Keep in mind that pIC50 stands for -log10 of concentration in molar terms.

### Prompt # get_value(readout='pIC50', item= TLGIVCPI )
### Response 4.55
